# target_under_test: Neutrophil collagenase (Homo sapiens) (UniProt P22894);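 further: recombinant human MMP8 enzyme, percent inhibition read after 30 min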
# Sequence (P22894 101-467 limits assumed): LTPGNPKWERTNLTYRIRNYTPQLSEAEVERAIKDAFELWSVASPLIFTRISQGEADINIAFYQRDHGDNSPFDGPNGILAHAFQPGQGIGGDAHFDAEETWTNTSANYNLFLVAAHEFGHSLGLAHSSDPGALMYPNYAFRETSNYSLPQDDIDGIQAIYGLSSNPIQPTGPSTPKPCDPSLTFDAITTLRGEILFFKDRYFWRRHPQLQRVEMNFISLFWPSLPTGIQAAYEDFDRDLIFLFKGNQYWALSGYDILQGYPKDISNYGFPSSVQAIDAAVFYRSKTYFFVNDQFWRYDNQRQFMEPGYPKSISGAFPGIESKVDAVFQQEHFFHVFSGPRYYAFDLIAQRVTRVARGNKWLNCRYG
# test_conditions: at 1 mM
We use 40% as the dividing line for inhibition: on or above the line is TRUE, below is FALSE.

- molecule: "CC(C)c1cccc(C(=O)O)c1O"
  class_assignment: "FALSE"
- molecule: "CC(=O)CC(C)=O"
  class_assignment: "FALSE"

# input Is reported inhibition greater than or equal to 40% here: O=C(O)c1ccc(C(=O)O)nc1
# output FALSE

# input Is reported inhibition greater than or equal to 40% here: CC(=O)C1CCCC1=O (stereo not given)
# output FALSE

# input Is reported inhibition greater than or equal to 40% here: Oc1ccccc1O
# output FALSE

# input Is reported inhibition greater than or equal to 40% here: Oc1ccc2ccccc2c1O
# output TRUE
